assay: high throughput solubility (HT-Solubility); type: physicochemical; conditions: pH 6.8, pH 6.8; read-out: HT-Solubility pH 6.8
quantityMeasured: solubility (µg/mL)

chemsmiles=CN[C@H](CC(=O)N[C@H](Cc1c[nH]c2ccccc12)C(=O)N[C@@H](CCCCN)CC(=O)N[C@@H]1CC(=O)O[C@@H]1C)Cc1ccccc1 quantitymeasured=solubility resultvalue=30.9
chemsmiles=CCCCCNC(=O)C[C@H](CCCCN)NC(=O)[C@@H](Cc1c[nH]c2ccccc12)NC(=O)C[C@H](Cc1ccccc1)NC(=O)CCC quantitymeasured=solubility resultvalue=12.9
chemsmiles=CCC(=O)N[C@H](CC(=O)N[C@H](Cc1c[nH]c2ccccc12)C(=O)N[C@@H](CCCCN)CC(=O)NC1CCCC1)Cc1ccccc1 quantitymeasured=solubility resultvalue=63.1
chemsmiles=CCCCCCCCC(=O)N[C@H](CC(=O)N[C@H](Cc1c[nH]c2ccccc12)C(=O)N[C@@H](CCCCN)CC(=O)N[C@H](CC(N)=O)[C@@H](C)O)Cc1ccccc1 quantitymeasured=solubility resultvalue=15.2
chemsmiles=CCC(=O)N(C)[C@H](CC(=O)N[C@H](Cc1c[nH]c2ccccc12)C(=O)N[C@@H](CCCCN)CC(=O)NC1CCCC1)Cc1ccccc1 quantitymeasured=solubility resultvalue=129
chemsmiles=CCCCCN(C)C(=O)C[C@H](CCCCN)NC(=O)[C@@H](Cc1c[nH]c2ccccc12)N(Cc1ccccc1)C(=O)C[C@H](Cc1ccccc1)NC(=O)CC quantitymeasured=solubility resultvalue=14.7

* * *

test: high throughput solubility (HT-Solubility); assay type: physicochemical; conditions: pH 6.8, pH 6.8; read-out: HT-Solubility pH 6.8
quantityMeasured: solubility (µg/mL)

chemsmiles=CC(=O)N[C@H](CC(=O)N[C@H](Cc1c[nH]c2ccccc12)C(=O)N[C@@H](CCCCN)CC(=O)N[C@H](CC(=O)N(C)CCc1ccccc1)C(C)C)Cc1ccccc1 units=µg/mL resultvalue=15.6
chemsmiles=CCC(=O)N[C@H](CC(=O)N[C@H](Cc1c[nH]c2ccccc12)C(=O)N[C@@H](CCCCN)CC(N)=O)Cc1ccccc1 units=µg/mL resultvalue=112
chemsmiles=C[C@H]1OC(=O)C[C@H]1NC(=O)C[C@H](CCCCN)NC(=O)[C@@H](Cc1c[nH]c2ccccc12)NC(=O)C[C@@H](N)Cc1ccccc1 units=µg/mL resultvalue=60.5
chemsmiles=CCCCNC(=O)C[C@H](CCCCN)NC(=O)[C@@H](Cc1c[nH]c2ccccc12)NC(=O)C[C@H](Cc1ccccc1)NC(=O)CC units=µg/mL resultvalue=30.9
chemsmiles=CCCCCN(C)C(=O)C[C@H](CCCCN)NC(=O)[C@@H](Cc1c[nH]c2ccccc12)NC(=O)C[C@H](Cc1ccccc1)NC(=O)CCC units=µg/mL resultvalue=132
chemsmiles=NCCCC[C@@H](CC(=O)NC1CCCC1)NC(=O)[C@@H](Cc1c[nH]c2ccccc12)NC(=O)C[C@H](Cc1ccccc1)NC(=O)C12CC3CC(CC(C3)C1)C2 units=µg/mL resultvalue=73.7
chemsmiles=CCN(CC)C(=O)C[C@@H](NC(=O)C[C@H](CCCCN)NC(=O)[C@@H](Cc1c[nH]c2ccccc12)NC(=O)C[C@H](Cc1ccccc1)NC(C)=O)C(C)C units=µg/mL resultvalue=14.4
chemsmiles=CCCCCCN(C)C(=O)C[C@H](CCCCN)NC(=O)[C@@H](Cc1c[nH]c2ccccc12)N(Cc1ccccc1)C(=O)C[C@H](Cc1ccccc1)NC(=O)CC units=µg/mL resultvalue=15
chemsmiles=C[C@H]1OC(=O)C[C@H]1NC(=O)C[C@H](CCCCN)NC(=O)[C@@H](Cc1cn(C)c2ccccc12)NC(=O)C[C@H](Cc1ccccc1)NC(=O)CCc1ccccc1 units=µg/mL resultvalue=15
chemsmiles=C[C@@H](O)[C@@H](CC(N)=O)NC(=O)C[C@H](CCCCN)NC(=O)[C@@H](Cc1c[nH]c2ccccc12)NC(=O)C[C@H](Cc1ccccc1)NC(=O)C12CC3CC(CC(C3)C1)C2 units=µg/mL resultvalue=15.7
chemsmiles=CCCCCN(C)C(=O)C[C@H](CCCCN)NC(=O)[C@@H](Cc1c[nH]c2ccccc12)N(C)C(=O)C[C@H](Cc1ccccc1)NC(=O)CC units=µg/mL resultvalue=132

* * *

experiment: high throughput solubility (HT-Solubility); format: physicochemical; settings: pH 1, pH 1.0; read-out: HT-Solubility pH 1.0
Label 1.0 when solubility is at or above 100 µg/mL; anything below gets 0.0.

compound="CCCCNC(=O)C[C@H](CCCCN)NC(=O)[C@@H](Cc1c[nH]c2ccccc12)NC(=O)C[C@H](Cc1ccccc1)NC(=O)CCC [Compound 54]" qualitativelabel=1.0
compound="CC(=O)N[C@H](CC(=O)N[C@H](Cc1c[nH]c2ccccc12)C(=O)N[C@@H](CCCCN)CC(=O)N[C@H](CC(=O)N(C)CCc1ccccc1)C(C)C)Cc1ccccc1 [Compound 25]" qualitativelabel=0.0
compound="CCC(=O)N(C)[C@H](CC(=O)N[C@H](Cc1c[nH]c2ccccc12)C(=O)N[C@@H](CCCCN)CC(=O)NC1CCCC1)Cc1ccccc1 [Compound 46]" qualitativelabel=1.0
compound="CC(=O)N[C@H](CC(=O)N[C@H](Cc1cn(C)c2ccccc12)C(=O)N[C@@H](CCCCN)CC(=O)N[C@@H]1CC(=O)O[C@@H]1C)Cc1ccccc1 [Compound 21]" qualitativelabel=0.0
compound="CCCCNC(=O)C[C@H](CCCCN)NC(=O)[C@@H](Cc1c[nH]c2ccccc12)NC(=O)C[C@H](Cc1ccccc1)NC(=O)CC [Compound 53]" qualitativelabel=1.0
compound="CCCCCCN(C)C(=O)C[C@H](CCCCN)NC(=O)[C@@H](Cc1c[nH]c2ccccc12)N(C)C(=O)C[C@H](Cc1ccccc1)NC(=O)CC [Compound 65]" qualitativelabel=1.0

* * *

The entries below are paired with their reported Papp.
assay: high throughput permeability (HT-Permeability, log Pe); assay type: physicochemical; settings: PAMPA, pH 4, pH 4.0; Pe in cm/s; read-out: HT-Permeability logPe pH 4.0 (converted)
quantityMeasured: Papp (×10⁻⁶ cm/s)

compound="CC(=O)N[C@H](CC(=O)N(C)[C@H](Cc1c[nH]c2ccccc12)C(=O)N[C@@H](CCCCN)CC(=O)N[C@@H]1CC(=O)O[C@@H]1C)Cc1ccccc1 [Compound 40]" resultvalue=0.1
compound="CCC(=O)N[C@H](CC(=O)N[C@H](Cc1c[nH]c2ccccc12)C(=O)N[C@@H](CCCCN)CC(N)=O)Cc1ccccc1 [Compound 60]" resultvalue=3.16
compound="C[C@@H](O)[C@@H](CC(N)=O)NC(=O)C[C@H](CCCCN)NC(=O)[C@@H](Cc1c[nH]c2ccccc12)NC(=O)C[C@H](Cc1ccccc1)NC(=O)CCc1ccccc1 [Compound 15]" resultvalue=3.98
compound="CC(=O)N[C@H](CC(=O)N[C@H](Cc1c[nH]c2ccccc12)C(=O)N[C@@H](CCCCN)CC(=O)N[C@H](CC(N)=O)[C@@H](C)O)Cc1ccccc1 [Compound 2]" resultvalue=0.1
compound="CC(C)[C@@H](CC(=O)N(C)CCc1ccccc1)NC(=O)C[C@H](CCCCN)NC(=O)[C@@H](Cc1c[nH]c2ccccc12)NC(=O)C[C@H](Cc1ccccc1)NC(=O)CCc1ccccc1 [Compound 23]" resultvalue=0.1

* * *

Recorded solubility for the following compounds
assay: high throughput solubility (HT-Solubility); format: physicochemical; conditions: pH 6.8; read-out: HT-Solubility pH 6.8
quantityMeasured: solubility (µg/mL)

compound="C[C@H]1OC(=O)C[C@H]1NC(=O)C[C@H](CCCCN)NC(=O)[C@@H](Cc1c[nH]c2ccccc12)NC(=O)C[C@H](Cc1ccccc1)NC(=O)c1ccccc1 [Compound 6]" units=µg/mL resultvalue=14.2
compound="C[C@@H](O)[C@@H](CC(N)=O)NC(=O)C[C@H](CCCCN)NC(=O)[C@@H](Cc1c[nH]c2ccccc12)NC(=O)C[C@H](Cc1ccccc1)NC(=O)c1ccccc1 [Compound 14]" units=µg/mL resultvalue=14.5

* * *

Assay: HT-logP o/w, high throughput assay based on artificial liquid membrane permeability
Type: physicochemical
Details: octanol/water; read-out: HT LogP ohw
Experimental: To be absorbed and transported by passive diffusion, drugs must be sufficiently lipophilic to penetrate the lipid cores of membranes, but not too lipophilic that they get retained and accumulated there. […] Octanol/water partition coefficients are measured in a high throughput assay based on artificial liquid membrane permeability. […] For this reason measured HT-log P o/w values based on chromatographic assays employing stationary phases may lead to erroneous results.
quantityMeasured: logP

chemsmiles=CCCCCN(C)C(=O)C[C@H](CCCCN)NC(=O)[C@@H](Cc1c[nH]c2ccccc12)N(Cc1ccccc1)C(=O)C[C@H](Cc1ccccc1)NC(=O)CC resultvalue=4.4
chemsmiles=C[C@@H](O)[C@@H](CC(N)=O)NC(=O)C[C@H](CCCCN)NC(=O)[C@@H](Cc1c[nH]c2ccccc12)NC(=O)C[C@H](Cc1ccccc1)NC(=O)c1ccccc1 resultvalue=2.6
chemsmiles=C[C@H]1OC(=O)C[C@H]1NC(=O)C[C@H](CCCCN)NC(=O)[C@@H](Cc1c[nH]c2ccccc12)NC(=O)C[C@H](Cc1ccccc1)NC(=O)c1ccccc1 resultvalue=2.8
chemsmiles=CCCCCN(C)C(=O)C[C@H](CCCCN)NC(=O)[C@@H](Cc1c[nH]c2ccccc12)N(C)C(=O)C[C@H](Cc1ccccc1)NC(=O)CC resultvalue=3.9
chemsmiles=CC(=O)N[C@H](CC(=O)N[C@H](Cc1c[nH]c2ccccc12)C(=O)N[C@@H](CCCCN)CC(=O)N[C@@H]1CC(=O)O[C@@H]1C)Cc1ccccc1 resultvalue=3.4
chemsmiles=CCCCCNC(=O)C[C@H](CCCCN)NC(=O)[C@@H](Cc1c[nH]c2ccccc12)NC(=O)C[C@H](Cc1ccccc1)NC(=O)CC resultvalue=3.4
